molecular target: Phospho-2-dehydro-3-deoxyheptonate aldolase (Escherichia coli); test: Competitive inhibition of recombinant Escherichia coli DAH7P synthase using PEP as substrate by Michaelis-Menten equation analysis using UV-visible spectrophotometry
Sequence (C3TIE2 1-350): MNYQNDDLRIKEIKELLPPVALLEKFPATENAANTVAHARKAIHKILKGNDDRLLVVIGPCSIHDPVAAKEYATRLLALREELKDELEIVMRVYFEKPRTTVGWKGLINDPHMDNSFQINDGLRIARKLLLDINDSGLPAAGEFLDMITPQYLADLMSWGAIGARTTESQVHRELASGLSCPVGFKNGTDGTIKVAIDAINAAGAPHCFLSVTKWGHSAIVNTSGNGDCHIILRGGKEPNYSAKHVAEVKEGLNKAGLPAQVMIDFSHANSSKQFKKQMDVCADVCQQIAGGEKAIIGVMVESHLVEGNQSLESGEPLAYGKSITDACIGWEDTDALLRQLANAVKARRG
MEASURED_QUANTITY: Ki (µM)
Quick note: give the figure in µM, leave out the unit.

For record O=C(O)C(=CCCCCOP(=O)(O)O)CP(=O)(O)O the listed Ki is 154
